Test system: OVCAR-5 ovarian
Assay: NCI tumour cell line growth inhibition, 48 h
Please go through the items and note down their GI50.

Please review the entries below; each comes with its answer.
COc1cc(C2CC(c3ccccc3)=NN2C(C)=O)cc(OC)c1OC (stereo not given) ... 70.7 µM
CC1OC(n2c3ccccc3c3c4c(c5c6ccccc6[nH]c5c32)C(=O)N(CCN2CCOCC2)C4=O)CC(O)C1O (stereo not given) ... 5.36 µM

Hey, quick one: what's GI50 for each of these?
1. O=S(=O)(CCNCc1ccc(-c2ccc3ncnc(Nc4ccc(OCc5cccc(F)c5)c(Cl)c4)c3c2)o1)c1ccccc1
2. O=C(CN1C(=O)S/C(=C\C(Cl)=C\c2ccccc2)C1=O)NCCc1ccc(O)cc1
3. C/C(=C\CCc1ccsc1)CC/C=C(\C)CCCN1CCC(CO)CC1

## Result
1. > 25 µM
2. 2.31 µM
3. 2.77 µM

----------
System: HCC-2998 colon
Assay: NCI tumour cell line growth inhibition, 48 h
Measurement label: TGI

Cc1cc(C)c2nc3nc(C)cc(C)c3c(N)c2c1 ... 22.5 µM
CCCNC(=O)Cn1c(C)cc2ccccc21 ... > 100 µM
C=C(C)[C@@H]1CC[C@]2(C(=O)O)CC[C@]3(C)[C@H](CC[C@@H]4[C@@]5(C)C/C(=C/c6ccc(OC)cc6)C(=O)C(C)(C)[C@@H]5CC[C@]43C)[C@@H]12 ... 5.73 µM
COc1cc([C@@H]2c3cc4c(cc3[C@@H](OC3OC5COC(C)OC5C(OC(=O)CN5CCN(C)CC5)C3OC(=O)CN3CCN(C)CC3)C3COC(=O)[C@@H]32)OCO4)cc(OC)c1OC(=O)CN1CCN(C)CC1 (some centres undefined) ... > 100 µM
COc1cc2c(cc1OC)C1Cc3cc(OC)c(OC)cc3C(C2)O1 ... > 100 µM
Nc1cccc2c1C1=NNC(=O)CC1C2 (centres undefined) ... > 100 µM

For every record below, what is its TGI?
1. O=C(c1nc2ccc(Cl)cc2[nH]c1=O)C(O)c1ccc2c(c1)OCO2 (centres undefined)
2. CS(=O)(=O)c1ccc(Oc2cc(F)cc(C#N)c2)c2c1[C@H](O)C(F)(F)C2
3. Cc1nn(-c2ccccc2)c2nc3c(nc12)C1=NCCN1C(c1ccc(Cl)cc1)N3 (centres undefined)
4. OCC1OC2OC3C(CO)OC(OC4C(CO)OC(OC5C(CO)OC(OC6C(CO)OC(OC7C(CO)OC(OC1C(O)C2O)C(O)C7O)C(O)C6O)C(O)C5O)C(O)C4O)C(O)C3O (centres undefined) (tested in a mixture with another compound)
5. CS/C(=N\S(=O)(=O)c1cc(C)c(Cl)cc1Cl)NNc1cnc2ccccc2n1
6. Cn1c(=O)n2c(-c3ccccc3)c(-c3ccccc3)n2c1=O
7. c1ccc(CN2CCCCC(Sc3ccccc3)CC2)cc1 (centres undefined)
8. CC(CO)(CBr)COC(=O)c1cc(Br)c(N)c(Br)c1 (centres undefined)

## Result
1. > 100 µM
2. > 100 µM
3. 3.49 µM
4. > 100 µM
5. > 100 µM
6. > 100 µM
7. 29.8 µM
8. > 100 µM

Required: TGI, one value per compound below.
1. CCN(CC)CCCCNc1ncc2cc(-c3cc(OC)cc(OC)c3)c(NC(=O)NC(C)(C)C)nc2n1
2. COc1ccc(NC(=O)CC(=O)N2N=C(N(CCC#N)c3cccc(C)c3)CC2c2ccccc2)cc1 (centres undefined)
3. CC(=O)OC[C@@]1(C)[C@@H]2[C@@H]3[C@@]4(CO[C@]3(C)C(=O)[C@@]3(O)C[C@H](C)[C@H](OC(C)=O)[C@@H]3[C@H]4OC(C)=O)[C@H](OC(=O)c3ccccc3)C[C@@H]21
4. c1ccc(CCN2CCOCC2)nc1
5. CC(C(=O)O)/C(=C\c1ccc2c(c1)OCO2)C(=O)O (centres undefined)
6. COc1ccc(C(=O)C(C(=O)C(=O)NC2C3CC4CC(C3)CC2C4)c2ccc(OC)cc2)cc1 (centres undefined)
7. C=CC[C@@H]1/C=C(\C)C[C@H](C)C[C@H](OC)[C@H]2O[C@@](O)(C(=O)C(=O)N3CCCC[C@H]3C(=O)O[C@H](/C(C)=C/C3CC[C@@H](O)[C@H](OC)C3)[C@H](C)[C@@H](O)CC1=O)[C@H](C)C[C@@H]2OC (some centres undefined)

## Result
1: 26 µM; 2: > 100 µM; 3: > 100 µM; 4: > 100 µM; 5: > 100 µM; 6: > 100 µM; 7: 34.7 µM

Batch lookup, TGI per entry.
1. CCOC(=O)c1c(-c2ccccc2)nc2c(OC)nccn12
2. CC(=O)NC1C(OC2C(CO)OC(OCC3OC(n4ccc(N)nc4=O)C(O)C3O)C(NC(C)=O)C2O)OC(CO)C(O)C1O (centres undefined)

## Result
1. > 100 µM
2. > 100 µM

Provide TGI values for the following items, in order.
1. Cc1[nH]nc2ccc3nc(-c4ccc5[nH]ncc5c4)c4c(c3c12)CCCC4
2. COc1nc(N)nc2c1ncn2[C@@H]1O[C@H](CO)[C@@H](O)[C@@H]1O
3. NC(=NCCN1CCCCCCC1)NO
4. CC[C@@H]1CC[C@@H]2[C@H](CC[C@]3(C)[C@@H](O)CC[C@@H]23)[C@H]1CO
5. CSc1nc2c(c(=O)[nH]1)N=C(c1ccc(Cl)cc1)CC(c1ccccc1)N2 (centres undefined)
6. NC(=O)CCC(NC(=O)Cc1ccccc1)C(=O)O (centres undefined) (tested in a mixture with another compound)

## Result
["15.1 µM", "> 100 µM", "> 100 µM", "> 100 µM", "28.8 µM", "> 8130 µM"]

----------
Test system: UACC-257 melanoma
Assay: NCI tumour cell line growth inhibition, 48 h
Outcome label depends on TGI relative to 8 µM: at/above gives Criterion met, below gives Criterion not met.

Example entries begin here.
Cc1cc2cc3cc(C)c(N)cc3[n+](C)c2cc1N ... Criterion not met
COc1ccc2c(c1)/C(=C\c1c(Cl)n(C)c3ccccc13)C(=O)N2 ... Criterion met
CN(C)[C@H]1CC[C@H]2[C@@H]3CCC4C[C@@H](NC(=O)NC(Cc5ccccc5)c5nccs5)CC[C@]4(C)[C@H]3CC[C@]12C (stereo not given in full) ... Criterion not met
O=[N+]([O-])C(=C(N1CCCCC1)N1CCCCC1)/C(Cl)=C(\Cl)[N+](=O)[O-] ... Criterion met

Shifting focus to the molecule that follows.
## Task Check if TGI >= 8 µM (inclusive). Item: O=C1c2cc([N+](=O)[O-])cc3cc([N+](=O)[O-])cc(c23)C(=O)N1CCCNCCNCCCN1C(=O)c2cc([N+](=O)[O-])cc3cc([N+](=O)[O-])cc(c23)C1=O
## Result Criterion not met

----------
Tested on: SK-OV-3 ovarian
Test: NCI tumour cell line growth inhibition, 48 h
Measurement label: TGI

Give one value of TGI per listed compound.
1. CCCC(=O)NC(C(=O)OCC)(N1CCOCC1)C(F)(F)F (stereo not given)
2. COc1cc(C2S/C(=C/c3ccccc3)C(=O)N2c2cc(Cl)c(Cl)cc2Cl)cc(OC)c1OC (stereo not given)
3. Cc1cc(C)c2nc3nc(C)cc(C)c3c(N)c2c1
4. CC[C@@H]1CC[C@@H]2[C@H](CC[C@]3(C)[C@@H](O)CC[C@@H]23)[C@H]1CO
5. O=S(=O)(CCNCc1ccc(-c2ccc3ncnc(Nc4ccc(OCc5cccc(F)c5)c(Cl)c4)c3c2)o1)c1ccccc1
6. CCOC(=O)c1c(-c2ccccc2)nc2c(OC)nccn12

## Result
1. > 100 µM
2. > 100 µM
3. 23.5 µM
4. > 100 µM
5. > 25 µM
6. > 100 µM

For each of the items listed, what is its TGI?
1. COC(=O)c1ccc(COC(=O)N2C=CCC2C(=O)O)cc1 (stereo not given)
2. OCCCc1cc(O)c2c(c1)C(CO)C(c1ccc(O)c(O)c1)O2 (stereo not given)
3. N#CCCOCN(CO)c1nc(N(CO)COCCC#N)nc(N(CO)COCCC#N)n1
4. CC(C)n1c(=O)[nH]n(-c2ccccc2)c1=O

## Result
["> 100 µM", "> 100 µM", "> 100 µM", "> 100 µM"]

----------
System: SF-295 CNS
Experiment: NCI tumour cell line growth inhibition, 48 h
Measurement label: TGI (µM)
Give bare numbers, in µM.

Example cases with answers are listed next.
CC1OC(n2c3ccccc3c3c4c(c5c6ccccc6[nH]c5c32)C(=O)N(CCN2CCOCC2)C4=O)CC(O)C1O (stereo unspecified) ... 6.23
O=C(Nc1ccc(OCc2nnc(-c3ccccc3)o2)c(F)c1)Nc1ccc(Cl)c(C(F)(F)F)c1 ... 6.83

## Task Look up TGI: COc1cc(-n2cnc(-c3ccc(Cl)cc3)c2)cc(OC)c1OC
## Result 38.1
